Biological target: UniProtKB Q8NER1
Test: Antagonist activity at human TRPV1 expressed in HEK293 cells assessed as inhibition of capsaicin-induced increase in intracellular Ca2+ level by FLIPR-based Ca2+ assay
Format: cell-based
readoutLabel: IC50 (nM)
Report only the number, with the unit nM understood.

Data request: For UniProtKB Q8NER1, give the measured IC50 of the entry O=C(Nc1ccccc1Br)N[C@@H]1CCN(c2ccc(C(F)(F)F)cn2)C1
Data returned: 3

###

Known pIC50 of a selection of compounds
Target: Transient receptor potential cation channel subfamily V member 1 (Homo sapiens, UniProt Q8NER1)
Sequence (Q8NER1 whole entry): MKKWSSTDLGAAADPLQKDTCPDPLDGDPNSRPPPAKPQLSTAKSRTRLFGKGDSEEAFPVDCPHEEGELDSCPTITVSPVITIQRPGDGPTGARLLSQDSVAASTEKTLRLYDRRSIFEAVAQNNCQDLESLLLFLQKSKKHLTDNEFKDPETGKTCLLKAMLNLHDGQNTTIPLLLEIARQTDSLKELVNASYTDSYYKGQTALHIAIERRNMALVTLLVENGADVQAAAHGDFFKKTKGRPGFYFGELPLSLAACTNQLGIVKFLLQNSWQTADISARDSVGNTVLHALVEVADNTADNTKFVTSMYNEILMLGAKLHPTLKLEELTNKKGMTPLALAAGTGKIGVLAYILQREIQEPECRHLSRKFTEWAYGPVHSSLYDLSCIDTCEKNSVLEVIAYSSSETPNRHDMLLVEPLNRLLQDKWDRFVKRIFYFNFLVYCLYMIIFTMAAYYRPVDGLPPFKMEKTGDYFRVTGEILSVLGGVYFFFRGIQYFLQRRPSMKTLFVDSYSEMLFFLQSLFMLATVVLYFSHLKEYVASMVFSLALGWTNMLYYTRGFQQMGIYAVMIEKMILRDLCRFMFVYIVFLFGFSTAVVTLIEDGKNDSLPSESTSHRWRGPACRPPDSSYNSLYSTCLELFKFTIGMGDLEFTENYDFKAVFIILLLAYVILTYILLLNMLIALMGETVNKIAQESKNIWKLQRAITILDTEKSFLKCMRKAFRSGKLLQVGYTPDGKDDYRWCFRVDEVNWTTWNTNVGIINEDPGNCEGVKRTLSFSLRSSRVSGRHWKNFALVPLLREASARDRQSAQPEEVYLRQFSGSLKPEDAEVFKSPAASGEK
Assay: Antagonist activity at human TRPV1 assessed as inhibition of capsaicin-induced increase in intracellular Ca2+ level
Type: cell-based
pIC50 is a log-scale quantity: -log10 of the concentration expressed in molar.

# compound, pIC50
rows = [
    ("COc1cc(CNC(=O)COC(=O)/C=C(\\C)CC=C(C)C)c(I)cc1O", 7.05),
    ("CC1CCN(c2nc(C(F)(F)F)ccc2CNC(=O)Cc2c(F)cccc2Cl)CC1", 8.59),
    ("O=C(C(c1ccccc1)N1C(=O)CCC1=O)N1CCN(c2cccc(C(F)(F)F)c2)CC1 (stereo not given)", 4.35),
    ("O=C1C[C@@H](c2ccc(O[C@@H]3O[C@H](CO)[C@@H](O)[C@H](O)[C@H]3O)cc2)Oc2cc(O)ccc21 [LIQUIRITIN]", 5.01),
]

Shifting focus to the compound that follows.
Data request: Let me know recorded pIC50 for O=C(Nc1ccc(Br)cc1)[C@@H]1CCCN1C(=O)Nc1cccc2cnccc12 , thanks.
Data returned: 7.08

###

Target: UniProt Q8NER1
Experiment: Antagonist activity at human TRPV1 expressed in HEK293 cells assessed as inhibition of capsaicin-induced increase in intracellular Ca2+ level incubated for 2 mins by scintillation counter analysis
Type: cell-based
readoutLabel: IC50 (nM)
Report only the number, with the unit nM understood.

Data request: Look up and report measured IC50 for this entry: CCC1(CC)CC(NC(=O)Nc2cccc3c(C)nccc23)c2cc(F)ccc2O1 (stereo unspecified)
Data returned: 19
